Just for reference, PubChem BioAssay (NCI) is where these values come from.

# Test system: SW-620 colon
# TEST DETAILS: NCI tumour cell line growth inhibition, 48 h; in the data active = GI50 below about 0.43 µM; inactive = the rest
Your response should consist of one outcome taken from active, inactive

COMPOUND | LABEL
CC(=O)c1c(Nc2ccc(F)c(F)c2F)[nH]c2c(F)cc(F)cc2c1=O | active
Cc1ccc(-c2cc(C(Cl)Cl)on2)cc1 | inactive
Cc1ccc(S(=O)c2ccc([N+](=O)[O-])c3nonc23)cc1 (centres undefined) | inactive

INPUT: Record lookup: outcome of this test for "CCOC(=O)/N=c1\ssc(Cl)c1Cl" ?
OUTPUT: inactive

###

# Tested on: HCT-116 colon
# TEST DETAILS: NCI tumour cell line growth inhibition, 48 h
// label = condition met if TGI is not less than 30 µM, otherwise condition not met

MOLECULE | LABEL
COc1ccc2c(c1)-c1nc(=S)n(CCN(C)C)c3ccc([N+](=O)[O-])c(c13)N2 | condition not met
COC(=O)[C@@H]1[C@H]2CC[C@]3(C)[C@@H](OC(C)=O)CC[C@H]3[C@@H]2CC[C@H]1C1(C)SCCS1 | condition met

INPUT: Tell me whether TGI is at least 30 µM here: "COc1ccccc1-c1nccc(COc2ccccc2C[C@@H](Oc2ncnc3sc(-c4ccc(F)cc4)c(-c4ccc(OCCN5CCN(C)CC5)c(Cl)c4C)c23)C(=O)O)n1"
OUTPUT: condition not met

INPUT: Hi, just wondering whether "Clc1sc(Cl)c2c1[C@H](Br)C[C@@H]2Cl" shows TGI of 30 µM or higher.
OUTPUT: condition met

INPUT: Item N#CC1=C(N)NC(=S)C(C#N)C12Nc1ccccc1S2 (centres undefined) with TGI of 30 µM or above?
OUTPUT: condition met

INPUT: Kindly determine if TGI recorded for COC(=O)Cc1c2n(c3ccccc13)C(=O)N1c3ccccc3C(CC(=O)OC)C21 (centres undefined) is above or exactly 30 µM.
OUTPUT: condition met

INPUT: Can "CCOc1ccccc1NC(=O)CCC(=O)NN" be said to have TGI at or above 30 µM?
OUTPUT: condition met

###

# Tested on: HCT-116 colon
# TEST DETAILS: NCI tumour cell line growth inhibition, 48 h
So I've got a bunch of molecules here, and I need their GI50 values.

MOLECULE | GI50
C=C1C(=O)C23CC1CCC2C12CO[C@@]3(O)[C@@H](O)C1C(C)(C)C=CC2=O (stereo partly drawn) | 2.9 µM
CC(C)c1ccc2c(c1)c(SC(C)(C)C)c(CC(C)(C)C(=O)O)n2Cc1ccc(Cl)cc1 | 9.1 µM
CC(=O)Nc1ccc2c(c1)CN1C(=O)c3ccccc3C1=N2 | > 100 µM
O=c1ncccn1C1OC(CO)C(O)C1F (stereo not drawn) | > 100 µM
Cc1cc(S(N)(=O)=O)c(S/C(=N\NS(=O)(=O)c2ccccc2)c2ccc(Cl)c(Cl)c2)cc1Cl | 38 µM
O=C(CCl)Nc1ccc(C(=O)N/N=C/c2ccc(Cl)cc2)cc1 | 1.57 µM

List reported GI50 for each of these molecules:
1. CCCC(=O)Nc1cn(COC)c(C(=O)N2C[C@H]3C[C@@]34C2=CC(=O)c2[nH]cc(C)c24)n1
2. CN1CCN(CCCOc2ccc3ncnc(Nc4ccc(Oc5cccc(F)c5)c(Cl)c4)c3c2)CC1

OUTPUT:
1. 2.32 µM
2. 1.51 µM

Batch lookup, GI50 per entry.
1. Cc1cc(C(=O)Nc2cc(Nc3ncccc3-c3ncnc4nc[nH]c34)ccc2F)cc(C(C)(C)C#N)c1
2. O=c1c2ccccc2c(=O)c2c1sc1c(=O)c3ccc(O)cc3c(=O)c12
3. CCOC(=O)/N=c1\ssc(Cl)c1Cl
4. CCOC(=O)C(=Cc1c(-c2ccccc2)[nH]c2ccccc12)C(=O)OCC
5. NC(=O)c1c(NC(=O)c2cccc(C(F)(F)F)c2)sc2c1CCC(=O)C2

OUTPUT:
0.151 µM
0.651 µM
3.35 µM
4.25 µM
0.249 µM

Items follow; give GI50 for each.
1. COc1cccc(C2CC(=O)Nc3cc4c(cc32)CCC4)c1OC (stereo not drawn)
2. CC[C@H](C)[C@H](NC(=O)N[C@@H](C)c1ccccc1)C(=O)N(C)[C@H](C[C@@H](OC(C)=O)c1nc(C(=O)N[C@@H](Cc2ccccc2)C[C@H](C)C(=O)OC)cs1)C(C)C
3. Cc1cc(Nc2cc(N3CCN(C)CC3)nc(C#Cc3ccccc3)n2)n[nH]1
4. Cc1ccc(-c2cc(C(Cl)Cl)on2)cc1
5. COc1ccccc1-c1nccc(COc2ccccc2C[C@@H](Oc2ncnc3sc(-c4ccc(F)cc4)c(-c4ccc(OCCN5CCN(C)CC5)c(Cl)c4C)c23)C(=O)O)n1

OUTPUT:
1: 3.61 µM; 2: 21.8 µM; 3: 1.4 µM; 4: 36.1 µM; 5: 2.43 µM

###

# Tested on: OVCAR-4 ovarian
# TEST DETAILS: NCI tumour cell line growth inhibition, 48 h
MEASUREMENT KIND: TGI

MOLECULE | TGI
O=C(O)C(O)c1ccc(F)cc1 (configuration not stated) | > 100 µM
NC(=O)c1ncn(C2OC(CO)C(O)C2O)c1NC(=S)NC(=O)c1ccccc1 (configuration not stated) | > 100 µM
Cn1c(=O)c2[nH]c(Nc3cccc(Cl)c3)nc2n(C)c1=O | > 10 µM
COc1cc(/C=C2/C(=O)N(C(=O)c3ccccc3O)N=C2C)ccc1O | > 100 µM

Lab note: each molecule below needs its TGI filled in.
1. O=c1[nH]nc(-c2ccc([N+](=O)[O-])cc2)[nH]1
2. CCc1nc2c([nH]1)C(=O)c1ccccc1C2=O
3. O=C1Cc2ccccc2CCc2ccccc21
4. CN(C)CN1C(=O)/C(=N\n2c(-c3ccncc3)n[nH]c2=S)c2ccccc21
5. Cc1cc(C(=O)Nc2cc(Nc3ncccc3-c3ncnc4nc[nH]c34)ccc2F)cc(C(C)(C)C#N)c1
6. C[C@@](Br)(C(=O)O)[C@H](Br)C(=O)O

OUTPUT:
1: > 100 µM; 2: > 100 µM; 3: > 100 µM; 4: 45.2 µM; 5: > 100 µM; 6: > 100 µM

Provide reported TGI for each item, in the same order as listed.
1. Cn1c2ccccc2c2c3c(=O)[nH][nH]c(=O)c3c3c4ccccc4n(C)c3c21
2. N=C(N)SCC(=O)O

OUTPUT:
["> 100 µM", "> 100 µM"]

###

# Test system: KM12 colon
# TEST DETAILS: NCI tumour cell line growth inhibition, 48 h
MEASUREMENT KIND: TGI (µM)
Numbers only, in µM.

Check out these entries, answers already filled in.
MOLECULE | VALUE REPORTED
C/C(=N\O)[C@H]1CC[C@@]2(C)[C@@H]3CC[C@H]4C(C)(C)/C(=N/O)CC[C@@]45CC35CC[C@]12C (some centres undefined) | 7.03
NCCNc1nc2ccccc2c2c(=O)c3cc(F)cc(Cl)c3sc12 | 3.24

Provide TGI values for the following items, in order.
1. COc1ccc(-c2nn(-c3cccc(Cl)c3)cc2-c2cc(-c3cccs3)no2)cc1
2. NCCn1c2c(c3ccccc3c1=O)C(=O)c1ccccc1-2

OUTPUT:
1: 11.1; 2: 2.38

###

# Tested on: DU-145 prostate
# TEST DETAILS: NCI tumour cell line growth inhibition, 48 h
MEASUREMENT KIND: TGI (µM)
Give bare numbers, in µM.

COMPOUND | TGI (µM)
C/C(=N\O)[C@H]1CC[C@@]2(C)[C@@H]3CC[C@H]4C(C)(C)/C(=N/O)CC[C@@]45CC35CC[C@]12C (some centres undefined) | 6.2

Hey, quick one: what's TGI for each of these?
1. CC(C)(C)C#CI1OC(=O)c2ccccc21
2. NCCNc1nc2ccccc2c2c(=O)c3cc(F)cc(Cl)c3sc12

OUTPUT:
1. 17.8
2. 3.22

INPUT: Read the entry COc1ccc2c(c1)CCC(CN1CCN(CCOC(c3ccccc3)c3ccccc3)CC1)C2O (centres undefined) and write its reported TGI.
OUTPUT: 38.9

###

# System: CCRF-CEM leukemia
# TEST DETAILS: NCI tumour cell line growth inhibition, 48 h
MEASUREMENT KIND: TGI

Below: 2 molecules and their reported TGI.
MOLECULE | TGI
O=C1CN(c2ccccc2)C(=O)C1C(=O)Nc1ccc(Cl)c(Cl)c1 (centres undefined) | > 100 µM
Cc1ccc(S(=O)(=O)N2CCc3cc(O)c([N+](=O)[O-])cc32)cc1 | > 100 µM

Parameter requested: TGI. Apply to each item below.
1. CN1CCN(CCCOc2ccc3ncnc(Nc4ccc(Oc5cccc(F)c5)c(Cl)c4)c3c2)CC1
2. CC1OC2OC3C(OCC(O)C3O)OC(=O)[C@]34CCC(C)(C)CC3C3=CCC5[C@@]6(C)C[C@H](O)[C@H](OC7OC(CO)C(O)C(O)C7OC7OC(COC(=O)CC(C)(O)CC(=O)OC1C(OC1OC(CO)C(O)C(O)C1O)C2O)C(O)C(O)C7O)[C@@](C)(CO)C6CC[C@@]5(C)[C@]3(C)CC4 (some centres undefined)
3. COc1ccc(-c2conc2-c2ccccc2)cc1
4. NC(=O)c1ncn(C2OC(CO)C(O)C2O)c1NC(=S)NC(=O)c1ccccc1 (centres undefined)
5. COc1ccc(CNC(=O)c2ccc(-c3cc(-c4nnc(C)o4)ccc3C)cc2)cc1
6. C=C[C@@]1(C)CC(=O)[C@]2(O)[C@@]3(C)[C@@H](O)CCC(C)(C)[C@@H]3[C@H](O)[C@@H](OC(C)=O)[C@@]2(C)O1

OUTPUT:
1. 8.21 µM
2. 14 µM
3. > 100 µM
4. > 100 µM
5. > 25 µM
6. > 100 µM
